subject.of.test: UCP1 (Homo sapiens, UniProt P25874)
Construct: His8 (N, cleaved yes); Factor Xa protease cleavage site (N, cleaved yes); made in house; host or cells: Saccharomyces cerevisiae strain W303.1B
Sequence (P25874 1-307): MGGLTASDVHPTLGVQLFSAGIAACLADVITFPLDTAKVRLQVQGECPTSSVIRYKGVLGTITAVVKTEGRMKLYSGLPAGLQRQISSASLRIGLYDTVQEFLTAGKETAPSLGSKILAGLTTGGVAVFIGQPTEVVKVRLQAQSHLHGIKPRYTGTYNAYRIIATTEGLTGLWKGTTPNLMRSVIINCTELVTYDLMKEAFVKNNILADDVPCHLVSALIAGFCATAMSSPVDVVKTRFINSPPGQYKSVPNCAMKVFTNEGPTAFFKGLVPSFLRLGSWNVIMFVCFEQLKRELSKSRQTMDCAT
measurement.description: Isothermal titration calorimetry of nucleotide binding
Parameters: unit not given here
assay.setup: Molar ratio (Nucleotide/UCP) 0.120417; representative isotherm, pH 6.0, 20 °C
Form field: isotherm data point (enthalpy change per injection) (one value per entry).

Guide cases for isotherm data point (enthalpy change per injection), answers given:
molecule: Cc1cn([C@H]2C[C@H](O)[C@@H](COP(=O)(O)OP(=O)(O)OP(=O)(O)O)O2)c(=O)[nH]c1=O [dTTP, thymidine triphosphate]
subject.of.test: UCP1 (Homo sapiens, UniProt P25874)
result: -22.0628
--
molecule: Nc1nc2c(ncn2[C@@H]2O[C@H](COP(=O)(O)OP(=O)(O)OP(=O)(O)O)[C@@H](O)[C@H]2O)c(=O)[nH]1 [GTP, guanosine triphosphate]
subject.of.test: UCP1 (Homo sapiens, UniProt P25874)
result: -20.3045

Switching to the query record.
In: Could you share which isotherm data point (enthalpy change per injection) value was measured for Nc1ccn(C2OC(COP(=O)(O)OP(=O)(O)OP(=O)(O)O)C(O)C2O)c(=O)n1 (stereo not drawn) ?
Out: -22.2743

====

subject.of.test: UCP1 (Homo sapiens, UniProt P25874)
Construct: His8 (N, cleaved yes); Factor Xa protease cleavage site (N, cleaved yes); made in house; host or cells: Saccharomyces cerevisiae strain W303.1B
measurement.description: Isothermal titration calorimetry of nucleotide binding;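 note: purified human UCP1 in cacodylate buffer with lauryl maltose neopentyl glycol and cardiolipin, titrated with nucleotides, isotherms fitted by one-site model yielding ΔH, Kd and stoichiometry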
Set-up: unit not given here
assay.setup: Molar ratio (Nucleotide/UCP) 0.877378; representative isotherm, pH 6.0, 20 °C
property.label: isotherm data point (enthalpy change per injection)
Respond numerically, and do not add a unit to the figure.

Guide cases for isotherm data point (enthalpy change per injection), answers given:
compound: Nc1ccn(C2OC(COP(=O)(O)OP(=O)(O)OP(=O)(O)O)C(O)C2O)c(=O)n1 (stereo not shown)
numeric.readout: -10.2913

compound: Cc1cn([C@H]2C[C@H](O)[C@@H](COP(=O)(O)OP(=O)(O)OP(=O)(O)O)O2)c(=O)[nH]c1=O [dTTP, thymidine triphosphate]
numeric.readout: -14.5814

compound: O=c1ccn([C@@H]2O[C@H](CO[P@@](=O)(O)O[P@@](=O)(O)OP(=O)(O)O)[C@@H](O)[C@H]2O)c(=O)[nH]1 (stereo in doubt) [UTP, uridine triphosphate]
numeric.readout: -10.3349

Switching to the query record.
In: Could you share which isotherm data point (enthalpy change per injection) value was measured for Nc1nc2c(ncn2[C@@H]2O[C@H](COP(=O)(O)OP(=O)(O)OP(=O)(O)O)[C@@H](O)[C@H]2O)c(=O)[nH]1 [GTP, guanosine triphosphate] ?
Out: -11.0392
